Attribution: patent US5817490A

# assay overview: enzyme screen for hydrolysis/methanolysis of butyl-KLG (HPLC of products and remaining substrate)
# Type: biochemical
# Design: unit: ppm
# condition set: Table 8: 38° C., 21 Hours, 8.6% Methanol-Water, 0.2 M MES
Reported KLG formed values for a set of molecules

molecule	quantity unit	KLG formed
Rhizopus Niveus Lipase: Rhizopus Niveus Lipase (protein, UniProt P61871 96-392, looked up) Lipase: DDNLVGGMTLDLPSDAPPISLSSSTNSASDGGKVVAATTAQIQEFTKYAGIAATAYCRSVVPGNKWDCVQCQKWVPDGKIITTFTSLLSDTNGYVLRSDKQKTIYLVFRGTNSFRSAITDIVFNFSDYKPVKGAKVHAGFLSSYEQVVNDYFPVVQEQLTAHPTYKVIVTGHSLGGAQALLAGMDLYQREPRLSPKNLSIFTVGGPRVGNPTFAYYVESTGIPFQRTVHKRDIVPHVPPQSFGFLHPGVESWIKSGTSNVQICTSEIETKDCSNSIVPFTSILDHLSYFDINEGSCL	ppm	178
Humicola lanuginosa Lipase: Humicola lanuginosa Lipase (protein, UniProt O59952 23-291, looked up) Lipase: EVSQDLFNQFNLFAQYSAAAYCGKNNDAPAGTNITCTGNACPEVEKADATFLYSFEDSGVGDVTGFLALDNTNKLIVLSFRGSRSIENWIGNLNFDLKEINDICSGCRGHDGFTSSWRSVADTLRQKVEDAVREHPDYRVVFTGHSLGGALATVAGADLRGNGYDIDVFSYGAPRVGNRAFAEFLTVQTGGTLYRITHTNDIVPRLPPREFGYSHSSPEYWIKSGTLVPVTRNDIVKIEGIDATGGNNQPNIPDIPAHLWYFGLIGTCL	ppm	176
Rhizoipus Delmar Lipase: Rhizoipus Delmar Lipase (protein, UniProt P61872 96-392, looked up) Lipase: DDNLVGGMTLDLPSDAPPISLSSSTNSASDGGKVVAATTAQIQEFTKYAGIAATAYCRSVVPGNKWDCVQCQKWVPDGKIITTFTSLLSDTNGYVLRSDKQKTIYLVFRGTNSFRSAITDIVFNFSDYKPVKGAKVHAGFLSSYEQVVNDYFPVVQEQLTAHPTYKVIVTGHSLGGAQALLAGMDLYQREPRLSPKNLSIFTVGGPRVGNPTFAYYVESTGIPFQRTVHKRDIVPHVPPQSFGFLHPGVESWIKSGTSNVQICTSEIETKDCSNSIVPFTSILDHLSYFDINEGSCL	ppm	178
